conditions: in methanol, 278.15 K
OBSERVED PROPERTY: solubility (mole fraction)

Please give the measured solubility (mole fraction) for this compound: CC(=O)Oc1ccc(C(c2ccc(OC(C)=O)cc2)c2ccccn2)cc1 0.000551

====

conditions: in ethanol, 293.15 K
OBSERVED PROPERTY: solubility (mole fraction)
Form: value (number only, do not type unit).

// lookup solubility (mole fraction) for CC(=O)Oc1ccc(C(c2ccc(OC(C)=O)cc2)c2ccccn2)cc1 0.000618

====

conditions: in methanol, 288.15 K
OBSERVED PROPERTY: solubility (mole fraction)
Answer with a number only.

Would you kindly share the measured solubility (mole fraction) for CC(=O)Oc1ccc(C(c2ccc(OC(C)=O)cc2)c2ccccn2)cc1 ? 0.000931
